- target of assay: TbINO1 (Trypanosoma brucei brucei)
- Sequence (Q5QQ46 1-528): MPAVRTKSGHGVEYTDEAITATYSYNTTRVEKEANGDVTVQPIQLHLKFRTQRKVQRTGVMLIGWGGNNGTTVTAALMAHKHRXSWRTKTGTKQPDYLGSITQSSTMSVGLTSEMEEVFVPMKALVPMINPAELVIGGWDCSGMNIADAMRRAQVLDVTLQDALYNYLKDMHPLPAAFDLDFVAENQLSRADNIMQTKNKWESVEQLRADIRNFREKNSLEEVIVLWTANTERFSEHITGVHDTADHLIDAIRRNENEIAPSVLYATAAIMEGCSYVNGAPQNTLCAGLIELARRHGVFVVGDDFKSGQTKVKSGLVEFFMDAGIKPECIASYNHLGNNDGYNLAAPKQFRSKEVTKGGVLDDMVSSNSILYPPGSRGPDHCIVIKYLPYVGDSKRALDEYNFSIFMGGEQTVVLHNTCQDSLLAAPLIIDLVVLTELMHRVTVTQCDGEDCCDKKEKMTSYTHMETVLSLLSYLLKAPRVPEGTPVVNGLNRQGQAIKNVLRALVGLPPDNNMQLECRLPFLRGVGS
- procedure summary: biochemical
- Format: binding
- setup conditions: read-out: Tb Ino1 Tm Shift [˚C]
reported metric: ΔTm at 1000 µM (°C)
Reply with just the number (in °C).

Consider the worked cases shown below.
Exercise: # return recorded ΔTm at 1000 µM for input "OCc1ccc(N2CCOCC2)s1"
Solution: 1.12

Exercise: # return recorded ΔTm at 1000 µM for input "Nc1ccc(-c2ccco2)cc1"
Solution: 0.83

Exercise: # return recorded ΔTm at 1000 µM for input "CCc1cccc(C(C)=O)c1"
Solution: 0.8

Exercise: # return recorded ΔTm at 1000 µM for input "c1ccc(Sc2ccsc2)cc1"
Solution: 0.11

Exercise: # return recorded ΔTm at 1000 µM for input OC1CCC(C(F)(F)F)CC1 (stereo not shown)
Solution: 0.47

# context switch: different molecule, same ΔTm at 1000 µM
Exercise: # return recorded ΔTm at 1000 µM for input Cc1cc(O)cc(C)c1C#N [compound 164, 4‐hydroxy‐2,6‐dimethylbenzonitrile]
Solution: 0.26
